assay: protein yield after purification from P. pastoris; settings: glycan gained; control: wild type
Reported endpoint: expression_or_secretion

# Protein, expression_or_secretion
rows = [
    ("CTendo45: F143S (protein) parent chain: MHLSQLALPLLLAAGAHAQGAQGTGRTTRYWDCCKPSCAWPGKSNALQPVQTCNAQDQPLNDGGNTRSGCDSGGSAFMCSNQSPWALNETLSYGWAAVRIAGQSEFNWCCACYELTFTSGPVAGKKMIVQATNTGGDLGSNHFDIAIPGGGVGIFNACTQQYGAPPNGWGERYGGIRSRSECDSFPEALKAGCYWRFDWFLGADNPDVSFKQVACPAAITAKSKCVRQRDVIDQTPTGPEIVPTWTP", "no change"),
    ("CTendo45: W169S (protein) parent chain: MHLSQLALPLLLAAGAHAQGAQGTGRTTRYWDCCKPSCAWPGKSNALQPVQTCNAQDQPLNDGGNTRSGCDSGGSAFMCSNQSPWALNETLSYGWAAVRIAGQSEFNWCCACYELTFTSGPVAGKKMIVQATNTGGDLGSNHFDIAIPGGGVGIFNACTQQYGAPPNGWGERYGGIRSRSECDSFPEALKAGCYWRFDWFLGADNPDVSFKQVACPAAITAKSKCVRQRDVIDQTPTGPEIVPTWTP", "no change"),
    ("CTendo45: F143T (protein) parent chain: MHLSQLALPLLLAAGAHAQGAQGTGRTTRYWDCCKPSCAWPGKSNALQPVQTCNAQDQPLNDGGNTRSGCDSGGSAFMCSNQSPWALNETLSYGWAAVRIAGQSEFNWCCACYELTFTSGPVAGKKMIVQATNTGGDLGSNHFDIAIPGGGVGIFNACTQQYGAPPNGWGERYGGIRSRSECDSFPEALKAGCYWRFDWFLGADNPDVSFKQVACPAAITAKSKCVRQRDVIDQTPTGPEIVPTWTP", "no change"),
    ("CTendo45: G63T (protein) parent chain: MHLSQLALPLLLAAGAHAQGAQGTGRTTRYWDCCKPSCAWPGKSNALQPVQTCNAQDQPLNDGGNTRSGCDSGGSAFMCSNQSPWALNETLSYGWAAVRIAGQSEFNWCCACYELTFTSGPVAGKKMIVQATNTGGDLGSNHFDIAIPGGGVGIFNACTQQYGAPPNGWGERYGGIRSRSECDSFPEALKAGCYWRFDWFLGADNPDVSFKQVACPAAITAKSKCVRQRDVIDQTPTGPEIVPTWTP", "no change"),
    ("CTendo45: L47T (protein) parent chain: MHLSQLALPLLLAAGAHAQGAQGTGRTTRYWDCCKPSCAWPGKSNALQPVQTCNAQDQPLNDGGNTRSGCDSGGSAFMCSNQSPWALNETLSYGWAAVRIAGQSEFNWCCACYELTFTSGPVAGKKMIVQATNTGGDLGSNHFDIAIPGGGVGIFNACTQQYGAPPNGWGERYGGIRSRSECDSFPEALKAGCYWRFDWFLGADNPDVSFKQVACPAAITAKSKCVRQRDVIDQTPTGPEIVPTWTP", "no change"),
    ("CTendo45: Q56T (protein) parent chain: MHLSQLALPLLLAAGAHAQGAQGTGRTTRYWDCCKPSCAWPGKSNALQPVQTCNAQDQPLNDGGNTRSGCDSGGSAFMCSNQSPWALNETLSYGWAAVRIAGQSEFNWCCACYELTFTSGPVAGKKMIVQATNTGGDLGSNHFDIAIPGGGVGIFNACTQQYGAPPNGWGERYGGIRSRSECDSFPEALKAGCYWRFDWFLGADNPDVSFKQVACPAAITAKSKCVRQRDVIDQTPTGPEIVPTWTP", "no change"),
]

Below: the item to evaluate.
So, CTendo45: R67S (protein) parent chain: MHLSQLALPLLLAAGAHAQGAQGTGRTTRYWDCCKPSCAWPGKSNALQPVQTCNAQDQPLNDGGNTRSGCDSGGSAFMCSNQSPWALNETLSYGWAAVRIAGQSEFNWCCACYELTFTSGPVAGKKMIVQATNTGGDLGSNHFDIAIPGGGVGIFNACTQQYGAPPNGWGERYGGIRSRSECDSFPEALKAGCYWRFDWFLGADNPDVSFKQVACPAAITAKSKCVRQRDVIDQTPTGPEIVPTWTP ? Its expression_or_secretion was no change

This collection of values is drawn from paper PMC7045587.
